test-name: Plasma and brain compound levels in wild-type mice
Format: in vivo, mouse
test-parameters: mouse, brain, 1 h @ 5.0 mg/kg, read-out: Brain conc.

test-smiles	concentration at 1 h
CC(C)[C@@H](C)Nc1c(-c2c(F)cc(F)cc2F)c(Cl)nc2ncnn12	812 nM
C[C@@H](Nc1c(-c2c(F)cc(F)cc2F)c(Cl)nc2ncnn12)C(C)(C)C	153 nM

----------
test-name: Plasma and brain compound levels in wild-type mice
Assay type: in vivo, mouse
test-parameters: female, mouse, plasma, intraperitoneal, 1 h @ 2.5 mg/kg, read-out: Plasma conc.

molecule	concentration at 1 h
[2H][C@](C)(Nc1c(-c2c(F)cc(F)cc2F)c(Cl)nc2ncnn12)C(C)(C)C (single isomer, unassigned)	104 nM
[2H]C(C)(Nc1c(-c2c(F)cc(F)cc2F)c(Cl)nc2ncnn12)C(C)C (single isomer, unassigned)	199 nM
